# ASSAY TARGET: T1, human Trop-2-ECD-6His fusion protein (human, UniProt P09758 27-274)
# T1 construct: Expressed in a human 293 cell line; also called huTrop-2; human Trop-2 antigen
# T1 sequence: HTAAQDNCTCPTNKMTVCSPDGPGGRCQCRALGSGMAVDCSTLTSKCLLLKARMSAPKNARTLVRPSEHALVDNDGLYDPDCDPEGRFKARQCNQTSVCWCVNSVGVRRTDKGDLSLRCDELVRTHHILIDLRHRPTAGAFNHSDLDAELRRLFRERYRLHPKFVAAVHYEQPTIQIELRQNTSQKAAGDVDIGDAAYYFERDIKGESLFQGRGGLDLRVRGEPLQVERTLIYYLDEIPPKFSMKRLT
# EXPERIMENTAL PROTOCOL: antigen binding ELISA on immobilized human Trop-2-ECD-6His
Consider the following binders and their measured pEC50 readings.
Just so you know, pEC50 here is -log10 of the concentration in molar units; reply with that number alone.

Please review the entries below; each comes with its answer.
humanized IgG #118-2-5 HuA/LuX (antibody, V domains shown, Full-length IgG expressed in HEK293-6E cells; also called 1 (HuA/LuX); IgG HuA/LuX) VH: QVQLQESGPGLVKPSETLSLTCTVSGFSLTSYGVNWIRQPPGKGLEWIGVMWAGGSTNYNSALMSRVTISVDTSKNQFSLKLSSVTAADTAVYYCARDENWDGAWFAYWGQGTLVTVSS VL: DIVMTQSPDSLAVSLGERATINCKSSQSLLNSGTRKNYLAWYQQKPGQPPKLLIYWASSRESGVPDRFSGSGSGTDFTLTISSLQAEDVAVYYCKQSYNLFTFGGGTKVEIK | 9.85
humanized IgG #118-2-5 HuC/LuX (antibody, V domains shown, Full-length IgG expressed in HEK293-6E cells; also called 3 (HuC/LuX)) VH: QVQLQESGPGLVKPSETLSLTCTVSGFSLTSYGVNWIRQPPGKGLEWIGVMWAGGSTNYNSALMSRLSISKDNSKSQVFLKMNSLQTDDTGMYYCARDENWDGAWFAYWGQGTLVTVSS VL: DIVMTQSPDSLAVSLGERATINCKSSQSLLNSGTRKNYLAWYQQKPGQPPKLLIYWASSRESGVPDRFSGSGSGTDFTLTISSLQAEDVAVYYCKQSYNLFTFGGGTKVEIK | 10.47
humanized IgG #118-2-5 HuA/LuY (antibody, V domains shown, Full-length IgG expressed in HEK293-6E cells) VH: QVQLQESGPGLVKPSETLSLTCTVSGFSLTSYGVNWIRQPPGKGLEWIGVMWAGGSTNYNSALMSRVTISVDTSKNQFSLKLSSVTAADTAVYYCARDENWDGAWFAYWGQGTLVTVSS VL: DIVMTQSPSSLAVSLGERATMSCKSSQSLLNSGTRKNYLAWYQQKPGQPPKLLISWASSRESGVPDRFSGSGSGTDFTLTISSVQAEDLAVYYCKQSYNLFTFGGGTKVEIK | 10.80

Report pEC50 for humanized IgG #118-2-5 HuC/LuY (antibody, V domains shown, Full-length IgG expressed in HEK293-6E cells; also called 7 (HuC/LuY)) VH: QVQLQESGPGLVKPSETLSLTCTVSGFSLTSYGVNWIRQPPGKGLEWIGVMWAGGSTNYNSALMSRLSISKDNSKSQVFLKMNSLQTDDTGMYYCARDENWDGAWFAYWGQGTLVTVSS VL: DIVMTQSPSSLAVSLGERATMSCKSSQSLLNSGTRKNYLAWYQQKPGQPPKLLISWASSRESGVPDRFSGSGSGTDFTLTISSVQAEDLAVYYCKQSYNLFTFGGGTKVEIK
10.85
